Test system: OVCAR-8
Test: Cytotoxicity against human OVCAR8 cells assessed as cell growth at 10^-5 M after 48 hrs by SRB assay
Assay type: functional
Details: OVCAR-8, 48 h, read-out: Activity
Hi there, I'd appreciate the recorded growth at 10 µM for every entry that follows.

Per the record, "C=CCn1c(C)nc2ccc(Nc3nc(Nc4ncccn4)nc4ccccc34)cc21" has growth at 10 µM of 94.3%

Per the record, "C=CCn1c(C)nc2cc(Nc3nc(NCCO)nc4ccccc34)ccc21" has growth at 10 µM of 73.6%

Per the record, "C=CCn1c(C)nc2cc(Nc3nc(Nc4ccc5nc(C)n(CC=C)c5c4)nc4ccccc34)ccc21" has growth at 10 µM of 98.9%

Per the record, "C=CCn1c(C)nc2ccc(Nc3nc(Nc4ccc5nc(C)n(CC=C)c5c4)c4ccccc4n3)cc21" has growth at 10 µM of -76%

Per the record, "C=CCn1c(C)nc2cc(Nc3nc(Nc4ccc5nc(C)n(CC=C)c5c4)c4ccccc4n3)ccc21" has growth at 10 µM of -40.9%

Per the record, "C=CCn1c(C)nc2ccc(Nc3nc(NCCO)nc4ccccc34)cc21" has growth at 10 µM of 99%

Per the record, "C=CCn1c(C)nc2ccc(Nc3nc(Sc4ccc(N)cc4)nc4ccccc34)cc21" has growth at 10 µM of 63.7%

Per the record, "C=CCn1c(C)nc2ccc(Nc3nc(Nc4ccc(F)cc4)nc4ccccc34)cc21" has growth at 10 µM of 4%

###

Tested on: HCT-116
Assay: Cytotoxicity against human HCT116 cells assessed as cell growth at 10^-5 M after 48 hrs by SRB assay
Assay type: functional
Details: HCT-116, 48 h, read-out: Activity
Hi there, I'd appreciate the recorded growth at 10 µM for every entry that follows.
Quick note: unit goes after the number.

Per the record, "C=CCn1c(C)nc2ccc(Nc3nc(NCCO)nc4ccccc34)cc21" has growth at 10 µM of 94.7%

Per the record, "C=CCn1c(C)nc2ccc(Nc3nc(Nc4ncccn4)nc4ccccc34)cc21" has growth at 10 µM of 94.2%

Per the record, "C=CCn1c(C)nc2ccc(Nc3nc(Nc4ccc(F)cc4)nc4ccccc34)cc21" has growth at 10 µM of -11%

Per the record, "C=CCn1c(C)nc2cc(Nc3nc(Nc4ccc5nc(C)n(CC=C)c5c4)nc4ccccc34)ccc21" has growth at 10 µM of 98.9%

Per the record, "C=CCn1c(C)nc2ccc(Nc3nc(Sc4ccc(N)cc4)nc4ccccc34)cc21" has growth at 10 µM of 93.2%

Per the record, "C=CCn1c(C)nc2cc(Nc3nc(NCCO)nc4ccccc34)ccc21" has growth at 10 µM of 64%

Per the record, "C=CCn1c(C)nc2cc(Nc3nc(Nc4ccc5nc(C)n(CC=C)c5c4)c4ccccc4n3)ccc21" has growth at 10 µM of -96.5%

Per the record, "C=CCn1c(C)nc2ccc(Nc3nc(Nc4ccc5nc(C)n(CC=C)c5c4)c4ccccc4n3)cc21" has growth at 10 µM of -100%

###

Tested on: MCF7
Assay: Cytotoxicity against human MCF7 cells assessed as cell growth at 10^-5 M after 48 hrs by SRB assay
Assay type: functional
Conditions: MCF7, 48 h, read-out: Activity
Classify by measured growth at 10 µM: condition met if it is equal to or exceeds -60%, condition not met if it is smaller.

Q: Check this compound for growth at 10 µM at or above -60%: "C=CCn1c(C)nc2cc(Nc3nc(Nc4ccc5nc(C)n(CC=C)c5c4)nc4ccccc34)ccc21"
A: condition met

Q: Check this compound for growth at 10 µM at or above -60%: "C=CCn1c(C)nc2ccc(Nc3nc(Sc4ccc(N)cc4)nc4ccccc34)cc21"
A: condition met

Q: Check this compound for growth at 10 µM at or above -60%: "C=CCn1c(C)nc2ccc(Nc3nc(NCCO)nc4ccccc34)cc21"
A: condition met

Q: Check this compound for growth at 10 µM at or above -60%: "C=CCn1c(C)nc2ccc(Nc3nc(Nc4ncccn4)nc4ccccc34)cc21"
A: condition met

Q: Check this compound for growth at 10 µM at or above -60%: "C=CCn1c(C)nc2cc(Nc3nc(Nc4ccc5nc(C)n(CC=C)c5c4)c4ccccc4n3)ccc21"
A: condition not met

Q: Check this compound for growth at 10 µM at or above -60%: "C=CCn1c(C)nc2ccc(Nc3nc(Nc4ccc(F)cc4)nc4ccccc34)cc21"
A: condition not met

Q: Check this compound for growth at 10 µM at or above -60%: "C=CCn1c(C)nc2cc(Nc3nc(NCCO)nc4ccccc34)ccc21"
A: condition met

Q: Check this compound for growth at 10 µM at or above -60%: "C=CCn1c(C)nc2ccc(Nc3nc(Nc4ccc5nc(C)n(CC=C)c5c4)c4ccccc4n3)cc21"
A: condition not met

###

System: A498
Experiment: Cytotoxicity against human A498 cells assessed as cell growth at 10^-5 M after 48 hrs by SRB assay
Type: functional
Settings: A498, 48 h, read-out: Activity
Labelling field: enter label 1 if recorded growth at 10 µM is less than 40%. Enter label 0 if it equals or exceeds that cut-off.

Q: Given "C=CCn1c(C)nc2ccc(Nc3nc(Sc4ccc(N)cc4)nc4ccccc34)cc21" , is recorded growth at 10 µM strictly lower than 40%?
A: label 0

Q: Given "C=CCn1c(C)nc2cc(Nc3nc(Nc4ccc5nc(C)n(CC=C)c5c4)nc4ccccc34)ccc21" , is recorded growth at 10 µM strictly lower than 40%?
A: label 0

Q: Given "C=CCn1c(C)nc2ccc(Nc3nc(Nc4ccc5nc(C)n(CC=C)c5c4)c4ccccc4n3)cc21" , is recorded growth at 10 µM strictly lower than 40%?
A: label 1

Q: Given "C=CCn1c(C)nc2ccc(Nc3nc(NCCO)nc4ccccc34)cc21" , is recorded growth at 10 µM strictly lower than 40%?
A: label 0

Q: Given "C=CCn1c(C)nc2ccc(Nc3nc(Nc4ccc(F)cc4)nc4ccccc34)cc21" , is recorded growth at 10 µM strictly lower than 40%?
A: label 0

Q: Given "C=CCn1c(C)nc2cc(Nc3nc(NCCO)nc4ccccc34)ccc21" , is recorded growth at 10 µM strictly lower than 40%?
A: label 0

Q: Given "C=CCn1c(C)nc2cc(Nc3nc(Nc4ccc5nc(C)n(CC=C)c5c4)c4ccccc4n3)ccc21" , is recorded growth at 10 µM strictly lower than 40%?
A: label 1

Q: Given "C=CCn1c(C)nc2ccc(Nc3nc(Nc4ncccn4)nc4ccccc34)cc21" , is recorded growth at 10 µM strictly lower than 40%?
A: label 0

###

Test system: UACC-62
Assay: Cytotoxicity against human UACC62 cells assessed as cell growth at 10^-5 M after 48 hrs by SRB assay
Assay type: functional
Details: UACC-62, 48 h, read-out: Activity
endpoint: growth at 10 µM (%)
Please reply with the bare figure in % and do not write the unit itself.

Per the record, "C=CCn1c(C)nc2cc(Nc3nc(Nc4ccc5nc(C)n(CC=C)c5c4)nc4ccccc34)ccc21" has growth at 10 µM of 95.8

Per the record, "C=CCn1c(C)nc2ccc(Nc3nc(Nc4ccc5nc(C)n(CC=C)c5c4)c4ccccc4n3)cc21" has growth at 10 µM of -100

Per the record, "C=CCn1c(C)nc2ccc(Nc3nc(Sc4ccc(N)cc4)nc4ccccc34)cc21" has growth at 10 µM of 83.1

Per the record, "C=CCn1c(C)nc2cc(Nc3nc(NCCO)nc4ccccc34)ccc21" has growth at 10 µM of 85.5

Per the record, "C=CCn1c(C)nc2ccc(Nc3nc(NCCO)nc4ccccc34)cc21" has growth at 10 µM of 92.7

Per the record, "C=CCn1c(C)nc2cc(Nc3nc(Nc4ccc5nc(C)n(CC=C)c5c4)c4ccccc4n3)ccc21" has growth at 10 µM of -94

Per the record, "C=CCn1c(C)nc2ccc(Nc3nc(Nc4ncccn4)nc4ccccc34)cc21" has growth at 10 µM of 92.6

Per the record, "C=CCn1c(C)nc2ccc(Nc3nc(Nc4ccc(F)cc4)nc4ccccc34)cc21" has growth at 10 µM of -69

###

Hi there, I'd appreciate the recorded growth at 10 µM for every entry that follows.
Tested on: OVCAR-3
Test: Cytotoxicity against human OVCAR3 cells assessed as cell growth at 10^-5 M after 48 hrs by SRB assay
Format: functional
Conditions: OVCAR-3, 48 h, read-out: Activity
Please reply with the bare figure in % and do not write the unit itself.

I looked up "C=CCn1c(C)nc2ccc(Nc3nc(Nc4ccc(F)cc4)nc4ccccc34)cc21" and its growth at 10 µM for OVCAR-3 was 30

I looked up "C=CCn1c(C)nc2cc(Nc3nc(Nc4ccc5nc(C)n(CC=C)c5c4)c4ccccc4n3)ccc21" and its growth at 10 µM for OVCAR-3 was -100

I looked up "C=CCn1c(C)nc2cc(Nc3nc(NCCO)nc4ccccc34)ccc21" and its growth at 10 µM for OVCAR-3 was 94.8

I looked up "C=CCn1c(C)nc2cc(Nc3nc(Nc4ccc5nc(C)n(CC=C)c5c4)nc4ccccc34)ccc21" and its growth at 10 µM for OVCAR-3 was 108

I looked up "C=CCn1c(C)nc2ccc(Nc3nc(Sc4ccc(N)cc4)nc4ccccc34)cc21" and its growth at 10 µM for OVCAR-3 was 106

I looked up "C=CCn1c(C)nc2ccc(Nc3nc(Nc4ccc5nc(C)n(CC=C)c5c4)c4ccccc4n3)cc21" and its growth at 10 µM for OVCAR-3 was -99

I looked up "C=CCn1c(C)nc2ccc(Nc3nc(Nc4ncccn4)nc4ccccc34)cc21" and its growth at 10 µM for OVCAR-3 was 99.3

I looked up "C=CCn1c(C)nc2ccc(Nc3nc(NCCO)nc4ccccc34)cc21" and its growth at 10 µM for OVCAR-3 was 98.3
